Cited source for all entries: PubChem BioAssay (NCI)

For each record, write down the corresponding TGI.
- System: CCRF-CEM leukemia
- ASSAY_OVERVIEW: NCI tumour cell line growth inhibition, 48 h

Jot down TGI (CCRF-CEM leukemia) of "COc1cc2cc3c4c(cc(OC)c(OC)c4c2cc1OC)CCN3C(=O)CCCC(=O)O" .
> 100 µM

Fetch value of TGI on CCRF-CEM leukemia for Clc1cc2nc(C3CCCO3)[nH]c2cc1Cl (stereo unspecified) .
> 100 µM

// output TGI; input "Cc1cc2c3ccccc3n(C)c2c2c1C(=O)c1ccccc1C2=O" ; system CCRF-CEM leukemia
25.5 µM

Enter measured TGI, system CCRF-CEM leukemia, for the compound shown: "COC(=O)[C@]12CC[C@@H](C)[C@H](C)[C@@H]1C1=CC[C@@H]3[C@@]4(C)C[C@@H](OC(=O)c5ccco5)[C@H](O)[C@@](C)(CO)[C@@H]4[C@H](O)C[C@@]3(C)[C@]1(C)CC2"
5.77 µM

Write down measured TGI (CCRF-CEM leukemia) for this compound. N#CC12COC3(CCCCC3C1(C#N)C#N)OC2=N (stereo unspecified)
22.3 µM

Determine reported TGI for "CCCCCCCCCCCCCCCCOC(=O)C(C(=O)OCCCCCCCCCCCCCCCC)[N+](C)(C)CCOC(C)=O" ; test system: CCRF-CEM leukemia.
28.6 µM

* * *

- Tested on: CAKI-1 renal
- ASSAY_OVERVIEW: NCI tumour cell line growth inhibition, 48 h
MEASUREMENT_LABEL: TGI (µM)
Could you give me the number in µM? Just the number is fine.

Determine from records and report TGI for "Cc1c2ccccc2c(C)c2c3c(ccc12)C(=O)C=CC3=O"
46.3

Note down TGI recorded for "CCCCCCN(CCCCCC)CCCNc1nccc2ccccc12"
5.33

* * *

- Tested on: MDA-MB-435
Output constraint: value belongs to label 1 = active, label 0 = inactive

Check the results log: what was the call for "CCN1CCC[C@H]1c1cc(O)c2c(c1OC)C[C@H]1C[C@H]3[C@H](N)C(=O)C(C(N)=O)=C(O)[C@@]3(O)C(=O)C1=C2O" ?
label 1

What outcome does the record of this test show for "COc1cc(CNC(=O)/C=C/C=C/c2ccc3c(c2)OCO3)ccc1OCc1cn(-c2ccc(Cl)c(Cl)c2)nn1" ?
label 0

Please share the test call associated with "Cc1cccc(CN(C)c2ccc(CO)c(Cl)c2)c1" .
label 0

* * *

- Tested on: SN12C renal
- ASSAY_OVERVIEW: NCI tumour cell line growth inhibition, 48 h
Consider the following compounds; for each one, report its TGI.

For the compound "COc1ccc(Nc2c3ccccc3nc3c2c2ccccc2n3C)cc1" , give its measured TGI value.
> 100 µM

Provide TGI value for the following compound: "C/C=C/C=N/N(c1nnc(-c2ccccc2)c(-c2ccccc2)n1)S(=O)(=O)c1ccc(C)cc1"
20.7 µM

For the compound C/C(=N/O)C1CC=C(S(=O)(=O)c2ccccc2)C1 (stereo unspecified) , give its measured TGI value.
> 100 µM

Report TGI, nothing else, for this compound: "N#Cc1ccc(Oc2nccc(-c3c(-c4ccc(F)cc4)ncn3C3CCNCC3)n2)cc1"
> 25 µM

# return recorded TGI for input "C/C(=N\NC(=O)CC(=O)Nc1ccc(C)cc1)c1cc2ccccc2oc1=O"
> 100 µM

Please look at this compound and report its TGI: "ON=C1CCCCC(=NO)CCCC1"
> 100 µM

Return value of TGI for input "COCCc1c(C)c(C#N)c2n(C)c3ccccc3n2c1=O" , no commentary.
> 10 µM

Provide only the value of recorded TGI for "Cc1cc2c3ccccc3n(C)c2c2c1C(=O)c1ccccc1C2=O"
41.7 µM

Supply TGI value. Item: "O=[N+]([O-])c1cc2n[nH]nc2c2nonc12"
> 100 µM

Tell me TGI reported for "CN(C)c1cccc(-c2cc(=O)c3ccccc3[nH]2)c1"
> 100 µM

Entry "Cc1c2ccccc2c(C)c2c3c(ccc12)C(=O)C=CC3=O" needs its TGI filled in; supply it.
> 69.1 µM
